Target Or System: T1, human C5 (human, UniProt P01031 19-1676)
T1 construct: native C5 purified from plasma (EMD) in the Biacore and Octet assays, C5 of normal human serum in the CDC and hemolysis assays; two chains (alpha and beta); also called hC5; complement factor 5
Assay Details: SPR (Biacore), mAb captured, dissociation of human C5 at pH7.4 vs pH6.0, 37°C
Experimental Endpoint: t½ Ratio pH7.4/pH6.0
Number only, please.

I would be grateful if you could share the reported t½ Ratio pH7.4/pH6.0 for H4H12166P5 (antibody, human IgG4, V domains shown, histidine-mutated CDR variant of H4H12166P; human IgG4 (S108P)) VH: QVQLQESGPGLVKPSETLSLTCTVSGDSVSSSYWTWIRQPPGKGLEWIGYIYYSGSSNYNPSLKSRATISVDTSKNQFSLKLSSVTAADTAVYYCAREGNVDTTMIHDYWGQGTLVTVSS VL: AIQMTQSPSSLSASVGDRVTITCRASQGIRNDLGWYQQKPGKAPKLLIYAASSLQSGVPSRFAGRGSGTDFTLTISSLQPEDFATYYCLQDFNYPWTFGQGTKVEIK .
7.6
